# System: Leptosphaeria nodorum (LEPTNO)
# procedureSummary: In vitro fungitoxicity of hydrazones with and without copper towards Leptosphaeria nodorum (Example 26)
# Type: cell-based
# experimentalContext: Parastagonospora nodorum, 72 h, copper-minus medium; test compound Concn. 0.05 μg/mL; 72 h at 25° C.; read-out: LEPTNO % Inhn. Minus Copper Observed
Give T when the value for inhibition of growth at 0.05 µg/mL is at least 5%. Give F when it is less.

Known results for compounds:
[
  {
    "itemSmiles": "C/C(=N\\NC(=O)c1ccc(Cl)cc1)c1cc(Br)cc(Br)c1O",
    "targetEntity": "Leptosphaeria nodorum (LEPTNO)",
    "qualitativeLabel": "T"
  },
  {
    "itemSmiles": "COc1ccc(/C(C)=N/NC(=O)c2ccccc2O)c(O)c1OC",
    "targetEntity": "Leptosphaeria nodorum (LEPTNO)",
    "qualitativeLabel": "F"
  },
  {
    "itemSmiles": "C/C(=N\\NC(=O)c1cccc(Cl)c1)c1cc(C)ccc1O",
    "targetEntity": "Leptosphaeria nodorum (LEPTNO)",
    "qualitativeLabel": "F"
  },
  {
    "itemSmiles": "O=C(N/N=C/c1cc(Cl)c(C(F)(F)F)cc1O)c1ccccc1",
    "targetEntity": "Leptosphaeria nodorum (LEPTNO)",
    "qualitativeLabel": "F"
  },
  {
    "itemSmiles": "COc1ccc(/C(C)=N/NC(=O)c2ccc(C(F)(F)F)cc2)c(O)c1OC",
    "targetEntity": "Leptosphaeria nodorum (LEPTNO)",
    "qualitativeLabel": "F"
  }
]

Qu. Hi team, for C/C(=N\NC(=O)c1ccc(Br)cc1)c1cc(C(F)(F)F)ccc1O , is the recorded inhibition of growth at 0.05 µg/mL at or above 5%?
Ans. T

Qu. Identify whether the reported inhibition of growth at 0.05 µg/mL of the following compound is 5% or greater: O=C(N/N=C/c1cc(Cl)cc(C(F)(F)F)c1O)c1cccc(Cl)c1
Ans. T

Qu. Assess whether reported inhibition of growth at 0.05 µg/mL for O=C(N/N=C/c1cc(Cl)cc(C(F)(F)F)c1O)c1ccccc1C(F)(F)F sits at 5% or higher.
Ans. T

Qu. Say whether Cc1ccc(C(=O)N/N=C/c2ccc(Cl)c(Cl)c2O)cc1 shows inhibition of growth at 0.05 µg/mL of 5% or more.
Ans. T

Qu. Is inhibition of growth at 0.05 µg/mL at least 5%? Consider Cc1ccc(C(=O)N/N=C/c2c(Cl)ccc(Cl)c2O)cc1
Ans. T

Qu. Does the reported inhibition of growth at 0.05 µg/mL for Cc1ccc(C(=O)N/N=C/c2ccc(Cl)c(Cl)c2O)c(O)c1 fall at or above the 5% mark?
Ans. T

Qu. Would you say Cc1ccc(C(=O)N/N=C/c2c(C(F)(F)F)ccc(Cl)c2O)c(O)c1 shows inhibition of growth at 0.05 µg/mL at minimum 5%?
Ans. T
